Test system: normal osteoblast-like hFOB 1.19 cell line
Assay: AlamarBlue cytotoxicity assay, hFOB 1.19
Format: cell-based, human
Conditions: Homo sapiens, 48 h
pIC50: −log10 of the molar value.
QUANTITY KIND: pIC50

| COMPOUND | QUANTITY KIND | VALUE |
| --- | --- | --- |
| O=P(O)(O)C(O)(Cn1ccnc1)P(=O)(O)O [ZOLE, zoledronate] | pIC50 | 4.07 |

###

Tested on: normal osteoblast-like hFOB 1.19 cell line
Experiment: AlamarBlue cytotoxicity assay, hFOB 1.19
Format: cell-based, human
Conditions: Homo sapiens, 24 h
pIC50: −log10 of the molar value.

| COMPOUND | SYSTEM TESTED | pIC50 |
| --- | --- | --- |
| O=P(O)(O)C(O)(Cn1ccnc1)P(=O)(O)O [ZOLE, zoledronate] | normal osteoblast-like hFOB 1.19 cell line | < 3.70 |

###

System: human breast cancer MDA-MB-231 cell line
Experiment: AlamarBlue cytotoxicity assay, MDA-MB-231
Format: cell-based
Conditions: Homo sapiens, MDA-MB-231, 48 h
pIC50: −log10 of the molar value.

| COMPOUND | pIC50 |
| --- | --- |
| O=P(O)(O)C(O)(Cn1ccnc1)P(=O)(O)O [ZOLE, zoledronate] | < 3.70 |
